target: Bcl-2, P10415; assay: peptide SPOT array, c-Myc-tagged receptor at 1 uM or 100 nM, anti-c-Myc-Cy3
Sequence (P10415 1-217): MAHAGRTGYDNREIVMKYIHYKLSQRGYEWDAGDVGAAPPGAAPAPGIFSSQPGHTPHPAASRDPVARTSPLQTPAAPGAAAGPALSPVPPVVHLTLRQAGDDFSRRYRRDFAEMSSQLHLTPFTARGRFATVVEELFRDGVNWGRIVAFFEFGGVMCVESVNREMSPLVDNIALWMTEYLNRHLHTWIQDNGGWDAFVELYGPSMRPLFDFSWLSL
OUTCOME MEASURE: SPOT signal as a fraction of Bim BH3's signal on the same receptor and array
Answer as a number with no unit attached.

Short answer for LGDGPKLVRELFRVAEEHAPSIVFID [PSMC1] : SPOT signal as a fraction of Bim BH3's signal on the same receptor and array was 0.01

Notebook: DISLSNSGFKLVNFGCDYHQYRDKFS [PION] , SPOT signal as a fraction of Bim BH3's signal on the same receptor and array read as 0.09

The reported value for PFDCRDYAVVLRKYADKIYNISMKHP [FOLH1B] in terms of SPOT signal as a fraction of Bim BH3's signal on the same receptor and array is 0.36

Value of measured SPOT signal as a fraction of Bim BH3's signal on the same receptor and array for the entry PRPLSILGNLLLLCSQDMLTSLTKLS [CYP2F1] : 0.03

Entry under test: NATHEEVVHLLRNAGDEVTITVEYLR [SNTG2] . Its SPOT signal as a fraction of Bim BH3's signal on the same receptor and array was 0.01

The binder listed as FVGCEFLHHLLREWGEELQAVLRSSQ [GEMIN4] shows SPOT signal as a fraction of Bim BH3's signal on the same receptor and array equal to 0.01

So for KCRHEEVVQVLRNAGEEVTLTVSFLK [SNTG1] , the logged SPOT signal as a fraction of Bim BH3's signal on the same receptor and array turned out to be 0.01

The measured SPOT signal as a fraction of Bim BH3's signal on the same receptor and array associated with EERAQNVTRLLRKQAEEVNTEWEKLN [DMD] reads 0.01
